B1: FBXO3 (parent)
chain: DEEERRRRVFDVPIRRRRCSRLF

variants of: B1; assay: protein stability index of a GFP-peptide fusion (GPS, HEK-293T) (PSI 1-6); higher = more stable; settings: c terminus: native;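 further: lentivirally expressed fusions sorted by FACS into six bins by GFP to DsRed ratio, PSI derived from sequencing read proportions per bin multiplied by bin number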
Grouping by measured protein stability index is done with the following cut points: 1 (below 2), 2 (2 to below 3), 3 (3 or more)

Previously resolved entries follow.
E4M    3
S20D    2
R17W    2
E4Y    2
R8T    3

Asked: Tag the class for "V9Y"
Given back: 2

Asked: Hey, which category is "R8E" in, do you know?
Given back: 3

Asked: Category of "V12R" , please.
Given back: 3

Asked: Consider "E2P" . To which protein stability index class does it belong?
Given back: 2

Asked: Just checking, what class would you give "R17F" here?
Given back: 1

Asked: Hello team, could you let me know which band the following variant falls into: "I14T"
Given back: 3

// data source = the supplement of paper PMC10567573
